target: HIV-1 YU-2 gp120 (HIV-1 (YU-2), UniProt P35961); experiment: SPR
Listing of recorded kon by entry.
// note: answer is a bare numeric in M⁻¹ s⁻¹

Reference set, count: 8
INPUT: Entry Fab m18 N30A (HCDR1) (Fab, V domains shown) VH: VQLLESGPGVVKPSETLSLTCTVSGASVANYYWTWVRQPPGKGLEWIGNVYDSGDTNYNPSLSSRLSLSMDTSKNQFSLRLSSVTAADTATYYCARYHRHFIRGPLSFDYWGRGTLVTVSS VL: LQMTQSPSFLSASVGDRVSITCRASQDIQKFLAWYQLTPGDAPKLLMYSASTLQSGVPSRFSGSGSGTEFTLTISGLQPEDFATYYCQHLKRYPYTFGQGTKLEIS : reported kon = ?
OUTPUT: 40000

INPUT: Entry Fab m18 R100aE (HCDR3) (Fab, V domains shown) VH: VQLLESGPGVVKPSETLSLTCTVSGASVNNYYWTWVRQPPGKGLEWIGNVYDSGDTNYNPSLSSRLSLSMDTSKNQFSLRLSSVTAADTATYYCARYHRHFIEGPLSFDYWGRGTLVTVSS VL: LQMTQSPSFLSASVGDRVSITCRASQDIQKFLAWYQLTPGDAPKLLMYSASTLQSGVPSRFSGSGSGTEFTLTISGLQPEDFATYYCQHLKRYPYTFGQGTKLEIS : reported kon = ?
OUTPUT: 16000

INPUT: Entry Fab m18 R100aA (HCDR3) (Fab, V domains shown) VH: VQLLESGPGVVKPSETLSLTCTVSGASVNNYYWTWVRQPPGKGLEWIGNVYDSGDTNYNPSLSSRLSLSMDTSKNQFSLRLSSVTAADTATYYCARYHRHFIAGPLSFDYWGRGTLVTVSS VL: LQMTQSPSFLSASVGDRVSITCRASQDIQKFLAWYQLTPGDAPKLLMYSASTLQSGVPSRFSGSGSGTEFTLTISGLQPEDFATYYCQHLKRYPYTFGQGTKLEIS : reported kon = ?
OUTPUT: 34000

INPUT: Entry Fab m18 K31R (LCDR1) (Fab, V domains shown) VH: VQLLESGPGVVKPSETLSLTCTVSGASVNNYYWTWVRQPPGKGLEWIGNVYDSGDTNYNPSLSSRLSLSMDTSKNQFSLRLSSVTAADTATYYCARYHRHFIRGPLSFDYWGRGTLVTVSS VL: LQMTQSPSFLSASVGDRVSITCRASQDIQRFLAWYQLTPGDAPKLLMYSASTLQSGVPSRFSGSGSGTEFTLTISGLQPEDFATYYCQHLKRYPYTFGQGTKLEIS : reported kon = ?
OUTPUT: 31000

INPUT: Entry Fab m18 R93A (LCDR3) (Fab, V domains shown) VH: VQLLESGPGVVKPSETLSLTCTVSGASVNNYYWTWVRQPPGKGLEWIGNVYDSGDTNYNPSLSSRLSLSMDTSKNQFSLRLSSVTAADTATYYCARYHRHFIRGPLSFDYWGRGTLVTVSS VL: LQMTQSPSFLSASVGDRVSITCRASQDIQKFLAWYQLTPGDAPKLLMYSASTLQSGVPSRFSGSGSGTEFTLTISGLQPEDFATYYCQHLKAYPYTFGQGTKLEIS : reported kon = ?
OUTPUT: 39000

INPUT: Entry Fab m18 Y102A (HCDR3) (Fab, V domains shown) VH: VQLLESGPGVVKPSETLSLTCTVSGASVNNYYWTWVRQPPGKGLEWIGNVYDSGDTNYNPSLSSRLSLSMDTSKNQFSLRLSSVTAADTATYYCARYHRHFIRGPLSFDAWGRGTLVTVSS VL: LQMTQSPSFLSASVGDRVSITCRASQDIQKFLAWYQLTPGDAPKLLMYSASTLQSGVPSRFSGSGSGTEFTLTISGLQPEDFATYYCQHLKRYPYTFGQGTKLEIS : reported kon = ?
OUTPUT: 37000

INPUT: Entry Fab m18 Y33F (HCDR1) (Fab, V domains shown) VH: VQLLESGPGVVKPSETLSLTCTVSGASVNNYFWTWVRQPPGKGLEWIGNVYDSGDTNYNPSLSSRLSLSMDTSKNQFSLRLSSVTAADTATYYCARYHRHFIRGPLSFDYWGRGTLVTVSS VL: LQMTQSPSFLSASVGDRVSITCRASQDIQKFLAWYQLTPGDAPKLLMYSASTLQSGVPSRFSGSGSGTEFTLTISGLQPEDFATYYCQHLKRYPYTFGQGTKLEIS : reported kon = ?
OUTPUT: 42000

INPUT: Entry Fab m18 D56A (HCDR2) (Fab, V domains shown) VH: VQLLESGPGVVKPSETLSLTCTVSGASVNNYYWTWVRQPPGKGLEWIGNVYDSGATNYNPSLSSRLSLSMDTSKNQFSLRLSSVTAADTATYYCARYHRHFIRGPLSFDYWGRGTLVTVSS VL: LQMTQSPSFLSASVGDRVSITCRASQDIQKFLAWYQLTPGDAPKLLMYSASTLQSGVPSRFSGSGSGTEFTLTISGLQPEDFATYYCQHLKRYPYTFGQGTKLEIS : reported kon = ?
OUTPUT: 25000

---
INPUT: Entry Fab m18 I100A (HCDR3) (Fab, V domains shown) VH: VQLLESGPGVVKPSETLSLTCTVSGASVNNYYWTWVRQPPGKGLEWIGNVYDSGDTNYNPSLSSRLSLSMDTSKNQFSLRLSSVTAADTATYYCARYHRHFARGPLSFDYWGRGTLVTVSS VL: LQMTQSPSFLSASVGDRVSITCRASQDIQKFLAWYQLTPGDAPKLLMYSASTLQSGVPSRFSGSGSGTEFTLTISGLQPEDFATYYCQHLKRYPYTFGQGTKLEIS : reported kon = ?
OUTPUT: 27000

INPUT: Entry Fab m18 S54A (HCDR2) (Fab, V domains shown) VH: VQLLESGPGVVKPSETLSLTCTVSGASVNNYYWTWVRQPPGKGLEWIGNVYDAGDTNYNPSLSSRLSLSMDTSKNQFSLRLSSVTAADTATYYCARYHRHFIRGPLSFDYWGRGTLVTVSS VL: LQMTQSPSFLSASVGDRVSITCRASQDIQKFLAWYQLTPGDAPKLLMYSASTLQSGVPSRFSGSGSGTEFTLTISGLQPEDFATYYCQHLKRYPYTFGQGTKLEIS : reported kon = ?
OUTPUT: 39000
